// provenance: ChEMBL document CHEMBL1759873

Reported inhibition at 10 µg/mL values follow for various compounds
test system: Mycobacterium tuberculosis; test: Antitubercular activity against Mycobacterium tuberculosis H37Rv at 10 ug/ml by BACTEC radiometric susceptibility assay; type: functional
Write the value in % as a bare number.

Known inhibition at 10 µg/mL results, listed for orientation:
COMPOUND: O=C1C(=O)N(CCCCCBr)c2ccccc21
ASSAY SYSTEM: Mycobacterium tuberculosis
REPORTED METRIC: inhibition at 10 µg/mL
UNIT OF MEASUREMENT: %
RESULT: 34.8

COMPOUND: CC1=C2OCCCCN3C(=O)C(O)(c4cc(Br)ccc43)C2(C)SC1=O (centres undefined)
ASSAY SYSTEM: Mycobacterium tuberculosis
REPORTED METRIC: inhibition at 10 µg/mL
UNIT OF MEASUREMENT: %
RESULT: 5.1

COMPOUND: CC1=C2OCCCCCCN3C(=O)C(O)(c4cc(I)ccc43)C2(C)SC1=O (centres undefined)
ASSAY SYSTEM: Mycobacterium tuberculosis
REPORTED METRIC: inhibition at 10 µg/mL
UNIT OF MEASUREMENT: %
RESULT: -40

Ask: Quick one: inhibition at 10 µg/mL of CC1=C(OCCN2C(=O)C(=O)c3ccccc32)C(C)SC1=O (centres undefined) ?
Result: 34.7

Ask: Quick one: inhibition at 10 µg/mL of CC1=C(OCCCCN2C(=O)C(=O)c3ccccc32)C(C)SC1=O (centres undefined) ?
Result: 42.6

Ask: Quick one: inhibition at 10 µg/mL of CC1=C2OCCCCCCN3C(=O)C(O)(c4cc(Cl)ccc43)C2(C)SC1=O (centres undefined) ?
Result: -20

Ask: Quick one: inhibition at 10 µg/mL of CC1=C(OCCCCCCN2C(=O)C(=O)c3ccccc32)C(C)SC1=O (centres undefined) ?
Result: 36.4

Ask: Quick one: inhibition at 10 µg/mL of CC1=C2OCCCCCN3C(=O)C(O)(c4cc(Br)ccc43)C2(C)SC1=O (centres undefined) ?
Result: -21.1

Ask: Quick one: inhibition at 10 µg/mL of CC1=C(OCCN2C(=O)C(=O)c3cc(C)ccc32)C(C)SC1=O (centres undefined) ?
Result: 4

Ask: Quick one: inhibition at 10 µg/mL of CC1=C2OCCCCN3C(=O)C(O)(c4ccccc43)C2(C)SC1=O (centres undefined) ?
Result: 18.1

Ask: Quick one: inhibition at 10 µg/mL of CC1=C2OCCCCCCN3C(=O)C(O)(c4cc(F)ccc43)C2(C)SC1=O (centres undefined) ?
Result: -28

Ask: Quick one: inhibition at 10 µg/mL of CC1=C(OCCN2C(=O)C(=O)c3cc(F)ccc32)C(C)SC1=O (centres undefined) ?
Result: 22

Ask: Quick one: inhibition at 10 µg/mL of CC1=C(OCCN2C(=O)C(=O)c3cc(Cl)ccc32)C(C)SC1=O (centres undefined) ?
Result: 9.9

Ask: Quick one: inhibition at 10 µg/mL of CC1=C(OCCCCCN2C(=O)C(=O)c3ccccc32)C(C)SC1=O (centres undefined) ?
Result: 34

Ask: Quick one: inhibition at 10 µg/mL of CC1=C2OCCCCCCN3C(=O)C(O)(c4ccccc43)C2(C)SC1=O (centres undefined) ?
Result: 18.5
